Tested on: Mus musculus
Test: Tested for antiinflammatory activity on mouse type II collagen arthritis as Paw swelling of all animals in each group on day 30 at intraperitoneal dose of 12 mg/kg
Type: functional
quantity: Paw swelling (mm)
Give the value, in units of mm, as a plain number.

# compound C=CCC(Cc1cnc2nc(N)nc(N)c2c1C)c1ccc(C(=O)NC(CCC(=O)O)C(=O)O)cc1 (stereo unspecified) ; its Paw swelling = 2.24

# compound Nc1nc(N)c2cc(CCc3ccc(C(=O)NC(CCC(=O)O)C(=O)O)cn3)cnc2n1 (stereo unspecified) ; its Paw swelling = 2.28

# compound Cc1c(CCc2ccc(C(=O)NC(CCC(=O)O)C(=O)O)cn2)cnc2nc(N)nc(N)c12 (stereo unspecified) ; its Paw swelling = 2.33

# compound Cc1c(CCc2ccc(C(=O)NC(CCC(=O)O)C(=O)O)cc2)cnc2nc(N)nc(N)c12 (stereo unspecified) ; its Paw swelling = 2.71

# compound Nc1nc(N)c2cc(CCc3ccc(C(=O)NC(CCC(=O)O)C(=O)O)cc3)cnc2n1 (stereo unspecified) ; its Paw swelling = 2.24

# compound C#CCN(Cc1cnc2nc(N)nc(N)c2c1CC)c1ccc(C(=O)NC(CCC(=O)O)C(=O)O)cc1 (stereo unspecified) ; its Paw swelling = 2.2

----------
Test system: Mus musculus
Assay: Tested for antiinflammatory activity on mouse type II collagen arthritis as Paw swelling of all animals in each group on day 37 at intraperitoneal dose of 6 mg/kg
Type: functional
Here the recorded Paw swelling is given for each entry.

Observe how each entry below is paired with its result.
# molecule CCCN(Cc1cnc2nc(N)nc(N)c2c1C)c1ccc(C(=O)NC(CCC(=O)O)C(=O)O)cc1 (stereo not drawn) ; its Paw swelling = 2.2 mm

# molecule CCCCc1c(CNc2ccc(C(=O)NC(CCC(=O)O)C(=O)O)cc2)cnc2nc(N)nc(N)c12 (stereo not drawn) ; its Paw swelling = 2.27 mm

Could you now consider this next molecule?
# molecule C=CCN(Cc1cnc2nc(N)nc(N)c2c1CC)c1ccc(C(=O)NC(CCC(=O)O)C(=O)O)cc1 (stereo not drawn) ; its Paw swelling = 2.28 mm

----------
Tested on: Mus musculus
Experiment: Incidence of disease (mouse type II collagen) was scored as the percentage of animals within each experimental group that exhibited joint or limb inflammation on day 44 at intraperitoneal dose of 6 mg/kg
Assay type: functional
quantity: Animals (%)
Give the value, in units of %, as a plain number.

# molecule C=CCN(Cc1cnc2nc(N)nc(N)c2c1CC)c1ccc(C(=O)NC(CCC(=O)O)C(=O)O)cc1 (centres undefined) ; its Animals = 88

# molecule CCc1c(CN(C)c2ccc(C(=O)NC(CCC(=O)O)C(=O)O)s2)cnc2nc(N)nc(N)c12 (centres undefined) ; its Animals = 50

# molecule CCCc1c(CNc2ccc(C(=O)NC(CCC(=O)O)C(=O)O)cc2)cnc2nc(N)nc(N)c12 (centres undefined) ; its Animals = 0

New cases:
# molecule Cc1c(CN(C)c2ccc(C(=O)NC(CCC(=O)O)C(=O)O)s2)cnc2nc(N)nc(N)c12 (centres undefined) ; its Animals = 38

# molecule Nc1nc(N)c2cc(CCc3ccc(C(=O)NC(CCC(=O)O)C(=O)O)cc3)cnc2n1 (centres undefined) ; its Animals = 38

# molecule Cc1c(CCc2ccc(C(=O)NC(CCC(=O)O)C(=O)O)cn2)cnc2nc(N)nc(N)c12 (centres undefined) ; its Animals = 75

# molecule C=CCC(Cc1cnc2nc(N)nc(N)c2c1C)c1ccc(C(=O)NC(CCC(=O)O)C(=O)O)cc1 (centres undefined) ; its Animals = 100

# molecule CCCN(Cc1cnc2nc(N)nc(N)c2c1C)c1ccc(C(=O)NC(CCC(=O)O)C(=O)O)cc1 (centres undefined) ; its Animals = 25

# molecule Cc1c(CNc2ccc(C(=O)NC(CCC(=O)O)C(=O)O)cc2)cnc2nc(N)nc(N)c12 (centres undefined) ; its Animals = 100
